- target_under_test: Aβ1-42 (Homo sapiens)
- Construct: The β-amyloid peptide Aβ1-42 (Aβ1-42) was synthesised, purified (to a purity greater than 95%); made in house; host or cells: chemical peptide synthesis (no expression host)
- Sequence (P05067 672-713): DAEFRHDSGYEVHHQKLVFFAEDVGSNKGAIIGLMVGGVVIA
- measurement_protocol: Inhibition of the precipitation of Aβ1-42 by the addition of ligand (Micro BCA assay of soluble/aggregated peptide)
- Format: biochemical
- assay_conditions: Aβ1-42 5 μM, no metal salt, 1 h 37° C. then 1 h with 200 μM ligand, pH 7.4
- Description: After a further hour of incubation, the reaction mixture is centrifuged. Before use, the water [of Milli-Q Millipore quality] and all buffer solutions were treated on Chelex-100 resin (Biorad) (5 mg/ml) and filtered through 0.2 μm filters (Whatman) to remove potential traces of metal ions or particles. […] The protocol was established from works by: C. […] Quantification is carried out on the basis of standard BSA ranges. […]
Outcome: class 1 for without metal % soluble Aβ of at least 60%; class 0 for anything lower.

Worked examples follow.
c1cnc2c(NCCCNc3cccc4cccnc34)cccc2c1 = class 1
Oc1cccc2ccc(CCCCc3ccc4cccc(O)c4n3)nc12 = class 0
O=C(Nc1ccc2cccc(O)c2n1)c1ccc2cccc(O)c2n1 = class 1
c1cnc2c(Oc3cccc4cccnc34)cccc2c1 = class 1
Oc1c(I)cc(Cl)c2cccnc12 [Clioquinol, reference compound] = class 1
CCCCN(c1ccc2cccc(N)c2n1)c1ccc2cccc(N)c2n1 = class 1

[in] Please check the record Oc1cccc2ccc(Cc3ccc4cccc(O)c4n3)nc12 [Compound 1, 2,2′-methanediyl-bis(8-hydroxyquinoline)] and state if its without metal % soluble Aβ is at or above 60%.
[out] class 1

[in] Please check the record COc1ccc2ccc(CCc3ccc4ccc(OC)c(O)c4n3)nc2c1O and state if its without metal % soluble Aβ is at or above 60%.
[out] class 1

[in] Please check the record COc1ccc2ccc(Cc3ccc4ccc(OC)c(O)c4n3)nc2c1O.Cl.Cl and state if its without metal % soluble Aβ is at or above 60%.
[out] class 0

[in] Please check the record Cc1ccc2cccc(O)c2n1 [8-hydroxyquinaldine, reference compound] and state if its without metal % soluble Aβ is at or above 60%.
[out] class 1

Source: patent US20120277265A1
